# assay name: Pharmacokinetics after oral administration in rats
# Format: in vivo, Sprague Dawley (SD) rats
# run conditions: Sprague-Dawley, rat, plasma, PO 3 mg/kg
observed property: MRT (h)

> print(dat)
                               given.smiles  observed.property  assay.result
1  OC[C@H]1O[C@@H](c2cc(Cc3ccc(C4CC4)cc3)c(Cl)c3c2CCO3)[C@H](O)[C@@H](O)[C@@H]1O                MRT          14.9

----------
# assay name: Tissue distribution after single oral administration in mice
# Assay type: in vivo, ICR mice
# run conditions: male, ICR, mouse, single oral 1 mg/kg, lung, read-out: T1/2 (elimination half-life) (converted)
# Protocol: Thirty-six ICR mice were fasted with water ad libitum for at least 12 h before oral administration of enavogliflozin and randomly divided into six groups (n = 6 per each sampling time point) and administered with an enavogliflozin solution at a dose of 1 mg/kg via oral gavage. […] The data were expressed as the means ± standard deviation for the groups. […] The AUC ratios were calculated by dividing the AUClast of enavogliflozin in the tissue samples by the plasma AUClast values of enavogliflozin [15].
observed property: half-life (h)

> print(dat)
                               given.smiles  assay.result
1  OC[C@H]1O[C@@H](c2cc(Cc3ccc(C4CC4)cc3)c(Cl)c3c2CCO3)[C@H](O)[C@@H](O)[C@@H]1O           9.6

----------
# assay name: Tissue distribution after single oral administration in mice
# Format: in vivo, ICR mice
# run conditions: male, ICR, mouse, single oral 1 mg/kg, versus plasma, read-out: AUC ratio in stomach, small intestine, large intestine, liver
observed property: Kp

> print(dat)
                               given.smiles  assay.result
1  OC[C@H]1O[C@@H](c2cc(Cc3ccc(C4CC4)cc3)c(Cl)c3c2CCO3)[C@H](O)[C@@H](O)[C@@H]1O           > 5

----------
# assay name: Tissue distribution after single oral administration in mice
# Assay type: in vivo, ICR mice
# run conditions: male, ICR, mouse, single oral 1 mg/kg, lung, read-out: AUC Ratio (AUC24 h, tissue / AUC24 h, plasma)
observed property: Kp

> print(dat)
                               given.smiles  observed.property  assay.result
1  OC[C@H]1O[C@@H](c2cc(Cc3ccc(C4CC4)cc3)c(Cl)c3c2CCO3)[C@H](O)[C@@H](O)[C@@H]1O                 Kp             2

----------
# assay name: Pharmacokinetics after oral administration in mice
# Assay type: in vivo, ICR mice
# run conditions: ICR, mouse, PO 3 mg/kg, plasma
observed property: half-life (h)

> print(dat)
                               given.smiles  unit  assay.result
1  OC[C@H]1O[C@@H](c2cc(Cc3ccc(C4CC4)cc3)c(Cl)c3c2CCO3)[C@H](O)[C@@H](O)[C@@H]1O     h           3.3

----------
# assay name: Pharmacokinetics after oral administration in rats
# Assay type: in vivo, Sprague Dawley (SD) rats
# run conditions: Sprague Dawley, rat, PO 1 mg/kg, plasma
observed property: AUC(0-t)

> print(dat)
                                   molecule  observed.property  assay.result
1  OC[C@H]1O[C@@H](c2cc(Cc3ccc(C4CC4)cc3)c(Cl)c3c2CCO3)[C@H](O)[C@@H](O)[C@@H]1O [enavogliflozin]           AUC(0-t)  1350 ng·h/mL

----------
# assay name: Pharmacokinetics after intravenous injection in rats
# Type: in vivo, Sprague Dawley (SD) rats
# run conditions: Sprague-Dawley, rat, IV 3 mg/kg, plasma
observed property: AUC(0-inf)

> print(dat)
                               given.smiles  observed.property  assay.result
1  OC[C@H]1O[C@@H](c2cc(Cc3ccc(C4CC4)cc3)c(Cl)c3c2CCO3)[C@H](O)[C@@H](O)[C@@H]1O         AUC(0-inf)  7390 ng·h/mL

----------
# assay name: Pharmacokinetics after intravenous injection in mice
# Type: in vivo, ICR mice
# run conditions: ICR, mouse, plasma, IV 3 mg/kg
# Procedure: Fifty-four ICR mice were randomly divided into nine groups (n = 6 per group; Table 1) and intravenously administered an enavogliflozin solution at doses of 0.3, 1, and 3 mg/kg. […] Concentrations of enavogliflozin in plasma and tissue homogenate samples were analyzed using an Agilent 6430 triple quadrupole liquid chromatography-mass spectrometry (LC–MS/MS) system (Agilent, Wilmington, DE, USA) following a previously published method. […]
observed property: MRT (h)

> print(dat)
                                   compound  observed.property  assay.result
1  OC[C@H]1O[C@@H](c2cc(Cc3ccc(C4CC4)cc3)c(Cl)c3c2CCO3)[C@H](O)[C@@H](O)[C@@H]1O [enavogliflozin]                MRT           5.2

----------
# assay name: Pharmacokinetics after intravenous injection in rats
# Format: in vivo, Sprague Dawley (SD) rats
# run conditions: Sprague Dawley, rat, IV 1 mg/kg, plasma, incomplete elimination phase
# Protocol: Twelve rats were randomly divided into three groups (n = 4 per each group) and injected with an enavogliflozin solution at doses of 0.3, 1, and 3 mg/kg. […] Concentrations of enavogliflozin in plasma and tissue homogenate samples were analyzed using an Agilent 6430 triple quadrupole liquid chromatography-mass spectrometry (LC–MS/MS) system (Agilent, Wilmington, DE, USA) following a previously published method. The data were expressed as the means ± standard deviation for the groups. […]
observed property: half-life (h)

> print(dat)
                               given.smiles  unit  assay.result
1  OC[C@H]1O[C@@H](c2cc(Cc3ccc(C4CC4)cc3)c(Cl)c3c2CCO3)[C@H](O)[C@@H](O)[C@@H]1O     h           2.9

----------
# assay name: Pharmacokinetics after oral administration in rats
# Type: in vivo, Sprague Dawley (SD) rats
# run conditions: Sprague-Dawley, rat, PO 0.3 mg/kg, plasma
observed property: AUC(0-inf)

> print(dat)
                                   molecule  observed.property  assay.result
1  OC[C@H]1O[C@@H](c2cc(Cc3ccc(C4CC4)cc3)c(Cl)c3c2CCO3)[C@H](O)[C@@H](O)[C@@H]1O [enavogliflozin]         AUC(0-inf)   527 ng·h/mL

----------
# assay name: Tissue distribution after single or repeated oral administration (7 or 14 days) in mice
# Format: in vivo, ICR mice
# run conditions: ICR, mouse, small intestine, po, 1 mg/kg, single dose, small intestine, read-out: AUC Ratio (AUC48 h, tissue / AUC48 h, plasma)
observed property: Kp

> print(dat)
                               given.smiles  observed.property  assay.result
1  OC[C@H]1O[C@@H](c2cc(Cc3ccc(C4CC4)cc3)c(Cl)c3c2CCO3)[C@H](O)[C@@H](O)[C@@H]1O                 Kp          3.47

----------
# assay name: Pharmacokinetics after intravenous injection in rats
# Type: in vivo, Sprague Dawley (SD) rats
# run conditions: Sprague Dawley, rat, plasma, IV 0.3 mg/kg, read-out: CL
observed property: clearance (mL/min/kg)

> print(dat)
                               given.smiles  assay.result
1  OC[C@H]1O[C@@H](c2cc(Cc3ccc(C4CC4)cc3)c(Cl)c3c2CCO3)[C@H](O)[C@@H](O)[C@@H]1O             6

----------
# assay name: Tissue distribution after single oral administration in mice
# Format: in vivo, ICR mice
# run conditions: male, ICR, mouse, single oral 1 mg/kg, spleen, read-out: AUC Ratio (AUC24 h, tissue / AUC24 h, plasma)
observed property: Kp

> print(dat)
                               given.smiles  assay.result
1  OC[C@H]1O[C@@H](c2cc(Cc3ccc(C4CC4)cc3)c(Cl)c3c2CCO3)[C@H](O)[C@@H](O)[C@@H]1O           0.4

----------
# assay name: Tissue distribution after single or repeated oral administration (7 or 14 days) in mice
# Assay type: in vivo, ICR mice
# run conditions: ICR, mouse, plasma, po, 1 mg/kg, repeated dose for 7 days, plasma, read-out: AUC48 h
observed property: AUC(0-t) (ng·h/mL)

> print(dat)
                               given.smiles  observed.property  assay.result
1  OC[C@H]1O[C@@H](c2cc(Cc3ccc(C4CC4)cc3)c(Cl)c3c2CCO3)[C@H](O)[C@@H](O)[C@@H]1O           AUC(0-t)          2090

----------
# assay name: Pharmacokinetics after oral administration in rats
# Assay type: in vivo, Sprague Dawley (SD) rats
# run conditions: Sprague-Dawley, rat, plasma, po, 1 mg/kg, PO 1 mg/kg, AUC∞,PO / AUC∞,IV, read-out: BA (absolute bioavailability)
observed property: bioavailability (%)

> print(dat)
                               given.smiles  observed.property  unit  assay.result
1  OC[C@H]1O[C@@H](c2cc(Cc3ccc(C4CC4)cc3)c(Cl)c3c2CCO3)[C@H](O)[C@@H](O)[C@@H]1O    bioavailability     %          58.9
